# inhibition (INH) per entry
Tested on: Agrobacterium tumefaciens
PROTOCOL_NOTES: Antitumor activity assessed as inhibition of Agrobacterium tumefaciens B6-induced tumor formation after 12 days by potato disk assay
Assay type: functional
// note: answer is a bare numeric in %

compound `CCNC1=CC(=O)C=C(C[C@]2(C)[C@@H](C)CC[C@]3(C)C(C)=CCC[C@@H]23)C1=O` , inhibition (INH) observed: 54

Measured inhibition (INH), CC1=CCC[C@H]2[C@](C)(CC3=CC(=O)C=CC3=O)[C@@H](C)CC[C@]12C [AVARONE] : 63

The compound identified as `CC1=CCC[C@H]2[C@](C)(CC3=CC(=O)C(N[C@@H](C)C(=O)O)=CC3=O)[C@@H](C)CC[C@]12C` registered its inhibition (INH) at 38

Query `CC1=CCC[C@H]2[C@](C)(CC3=CC(=O)C(N[C@@H]4[C@@H](O)[C@H](O)[C@@H](CO)O[C@H]4O)=CC3=O)[C@@H](C)CC[C@]12C` yields inhibition (INH) of 38

The recorded inhibition (INH) for `CC1=CCC[C@H]2[C@](C)(CC3=CC(=O)C(N)=CC3=O)[C@@H](C)CC[C@]12C` is 55

In plain terms, `CC1=CCC[C@H]2[C@](C)(Cc3cc(=O)c4[nH]c5ncnc6ncn(c=4c3=O)c65)[C@@H](C)CC[C@]12C` has a documented inhibition (INH) of 27

###

Each entry below lists one item and its recorded LC50 value.
System: Artemia
PROTOCOL_NOTES: Toxicity against brine shrimp
Assay type: organism-based
CONDITION_CONTEXT: in vivo
Give a bare numeral; the unit ppm is implied.

ITEM_SMILES | ASSAY_VALUE
CCNC1=CC(=O)C=C(C[C@]2(C)[C@@H](C)CC[C@]3(C)C(C)=CCC[C@@H]23)C1=O | 0.81

Form field LC50, entry `CC1=CCC[C@H]2[C@](C)(CC3=CC(=O)C=C(N)C3=O)[C@@H](C)CC[C@]12C` : 0.24

LC50 measured on `CC1=CCC[C@H]2[C@](C)(CC3=CC(=O)C(N[C@@H](C)C(=O)O)=CC3=O)[C@@H](C)CC[C@]12C` = 2

For record `CCNC1=CC(=O)C(C[C@]2(C)[C@@H](C)CC[C@]3(C)C(C)=CCC[C@@H]23)=CC1=O` the listed LC50 is 0.27

###

Tested on: Agrobacterium tumefaciens
PROTOCOL_NOTES: Antitumor activity assessed as inhibition of Agrobacterium tumefaciens B6-induced tumor formation after 12 days by potato disk assay
Format: functional
# key: entry, value: inhibition (INH)
Provide the reading as a plain figure in %.

Some compounds with recorded inhibition (INH):
ITEM_SMILES | inhibition (INH) / %
CC1=CCC[C@H]2[C@](C)(CC3=CC(=O)C=C(N)C3=O)[C@@H](C)CC[C@]12C | 53
CCNC1=CC(=O)C(C[C@]2(C)[C@@H](C)CC[C@]3(C)C(C)=CCC[C@@H]23)=CC1=O | 38

Here is another compound to look at.
Value sought: inhibition (INH), system Agrobacterium tumefaciens, item `CNC1=CC(=O)C(C[C@]2(C)[C@@H](C)CC[C@]3(C)C(C)=CCC[C@@H]23)=CC1=O` . Result: 57
